Every entry's value here was drawn from patent US11292801B2.

# target_or_system: Human Calpain 1/NS1 (Homo sapiens, UniProt P07384)
# Sequence (P07384 whole entry): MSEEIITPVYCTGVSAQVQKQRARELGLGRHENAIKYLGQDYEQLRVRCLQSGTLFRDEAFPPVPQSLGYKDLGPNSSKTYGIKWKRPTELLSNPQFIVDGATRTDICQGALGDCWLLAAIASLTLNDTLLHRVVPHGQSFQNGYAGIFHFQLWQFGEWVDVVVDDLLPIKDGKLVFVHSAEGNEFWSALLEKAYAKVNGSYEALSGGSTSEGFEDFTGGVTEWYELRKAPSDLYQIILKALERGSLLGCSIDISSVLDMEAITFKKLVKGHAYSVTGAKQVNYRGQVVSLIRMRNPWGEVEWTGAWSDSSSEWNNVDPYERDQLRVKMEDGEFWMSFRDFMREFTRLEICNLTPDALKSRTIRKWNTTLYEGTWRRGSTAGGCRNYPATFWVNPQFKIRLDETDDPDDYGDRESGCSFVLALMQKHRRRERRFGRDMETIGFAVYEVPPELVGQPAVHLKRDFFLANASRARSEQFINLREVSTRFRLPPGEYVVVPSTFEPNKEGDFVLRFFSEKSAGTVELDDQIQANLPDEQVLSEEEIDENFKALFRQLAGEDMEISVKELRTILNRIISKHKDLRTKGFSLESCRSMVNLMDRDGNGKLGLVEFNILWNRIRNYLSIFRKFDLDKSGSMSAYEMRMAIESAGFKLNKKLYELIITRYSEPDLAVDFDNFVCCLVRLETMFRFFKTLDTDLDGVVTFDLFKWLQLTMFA
# Sequence (P04632 whole entry partner): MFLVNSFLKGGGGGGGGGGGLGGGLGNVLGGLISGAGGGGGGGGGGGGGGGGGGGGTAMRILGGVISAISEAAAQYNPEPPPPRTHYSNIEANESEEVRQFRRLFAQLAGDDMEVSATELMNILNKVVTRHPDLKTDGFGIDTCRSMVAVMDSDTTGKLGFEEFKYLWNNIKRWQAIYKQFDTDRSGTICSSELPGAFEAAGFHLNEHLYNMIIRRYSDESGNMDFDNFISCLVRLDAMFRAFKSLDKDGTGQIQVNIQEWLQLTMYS
# assay_notes: Biochemical inhibition of calpain 1, continuous fluorescence (FRET substrate) assay
# condition_notes: mean, read-out: Human Calpain 1/NS1 IC50 (nM)_MEAN
The entries below come with measured IC50 values attached.
assay_readout: IC50

                                    molecule            result
 0  O=C[C@@H]1CCCCOCCn2ccc3cccc(c32)C(=O)N1 [Compound 8]  3000 to 10000 nM
 1  CCOC(=O)CCNC(=O)C(=O)[C@@H]1C/C=C/COCCOCc2ccccc2C(=O)N1 [Compound 63]        > 10000 nM
 2  Cc1cc(C)cc(CNC(=O)C(=O)C2CCCCOCCOCc3ccccc3C(=O)N2)c1 (stereo not drawn) [Compound 111]        > 10000 nM
 3  O=C[C@@H]1Cc2ccc(cc2)OCCCCOc2cccc(c2)-c2ccn(n2)-c2ncccc2C(=O)N1 [Compound 46]         < 3000 nM
 4  O=C[C@@H]1CCCCCCCCc2ccccc2C(=O)N1 [Compound 15]  3000 to 10000 nM
 5  O=C(NC1CCCC1)C(=O)C1CCCCOCCOCc2ccccc2C(=O)N1 (stereo not drawn) [Compound 109]        > 10000 nM
 6  O=C1NC(C(=O)C(=O)N2CCOCC2)CCCCOCCOCc2ccccc21 (stereo not drawn) [Compound 115]        > 10000 nM
 7  O=C[C@@H]1CC=CCOCCn2ccc3cccc(c32)C(=O)N1 [Compound 9]        > 10000 nM
 8  O=C(NCCc1cccc(Cl)c1)C(=O)C1CCCCOCCOCc2ccccc2C(=O)N1 (stereo not drawn) [Compound 89]        > 10000 nM
 9  O=C[C@@H]1Cc2ccc(cc2)OC/C=C/COc2ccc3c(cnn3-c3ncccc3C(=O)N1)c2 [Compound 66]         < 3000 nM
10  CCCCNC(=O)C(=O)[C@@H]1C/C=C\COCCOCc2ccccc2C(=O)N1 [Compound 59]        > 10000 nM
11  O=C[C@@H]1Cc2ccc(cc2)CC=CCc2cccc(c2)-c2ccn(n2)-c2ncccc2C(=O)N1 [Compound 75]         < 3000 nM
12  CCOC(=O)CNC(=O)C(=O)[C@@H]1CCCCOCCOCc2ccccc2C(=O)N1 [Compound 56]        > 10000 nM
13  O=C[C@@H]1CC=CCOCCCOCc2ccccc2C(=O)N1 [Compound 11]  3000 to 10000 nM
14  O=C[C@@H]1CCCCCCCCCc2ccccc2C(=O)N1 [Compound 16]  3000 to 10000 nM
15  O=C(NC1CC1)C(=O)[C@@H]1Cc2ccc(cc2)CCCCc2cccc(c2)-c2ccn(n2)-c2ncccc2C(=O)N1 [Compound 74]         < 3000 nM
16  CCNC(=O)C(=O)[C@@H]1C/C=C/CCCCCCCc2ccccc2C(=O)N1 [Compound 33]        > 10000 nM
17  CCNC(=O)C(=O)[C@@H]1CCCCCCCCc2ccccc2C(=O)N1 [Compound 25]        > 10000 nM
18  O=C[C@@H]1CCCCCCCCc2cccnc2C(=O)N1 [Compound 49]        > 10000 nM
19  O=C(NCCN1CCOCC1)C(=O)C1CCCCOCCOCc2ccccc2C(=O)N1 (stereo not drawn) [Compound 80]        > 10000 nM
20  O=C[C@@H]1C/C=C/CCCCCc2cccnc2C(=O)N1 [Compound 48]        > 10000 nM
